FYI, the data here is from the supplement of paper PMC10567573.

Could you please report measured protein stability index for the items listed next?
experiment: protein stability index of a GFP-peptide fusion (GPS, HEK-293T) (PSI 1-6); higher = more stable; details: treatment: MLN4924 1 uM, 8 h; c terminus: a fixed tail appended;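 note: 24-mer peptide tiles fused after GFP, lentivirally expressed, FACS-sorted into six equal bins by GFP/DsRed ratio, decoded by Illumina sequencing, PSI is the read-weighted mean bin number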
Form field (numeric): enter value without unit.

Fill blank: measured protein stability index of the sequence DNDRTTPSDLDSTGNSLNEPEEPS [DLC1] is ____.
5.63

Fill blank: measured protein stability index of the sequence NPEEYNLDEPNAESDYTYSSSYEQ [SRPK2] is ____.
5.46

Fill blank: measured protein stability index of the sequence EPPKPTFPAYTQSTASTTSTTNST [ZNF207] is ____.
5.04

Fill blank: measured protein stability index of the sequence ESSDDDSEEAPSTSGMGFHAPKIG [SDE2] is ____.
5.41

Fill blank: measured protein stability index of the sequence VIHRALDREQVSSYNITVTATDGG [PCDHGA10] is ____.
3.14

Fill blank: measured protein stability index of the sequence MILLVNLFVLLSVVCVLLNLAGFI [FAM189A2] is ____.
3.14

Fill blank: measured protein stability index of the sequence FFMTATQYFTNRLDMSQNVSLVTA [SLC29A1] is ____.
2.92

Fill blank: measured protein stability index of the sequence LTRPVPAGADLPPPKIRLKPHRLG [PWWP2B] is ____.
3.73

Fill blank: measured protein stability index of the sequence DSMYGECRTYIIHYYLMDDTVEIR [EFHC1] is ____.
2.6

Fill blank: measured protein stability index of the sequence VVHVSFPEVTSALLESLNQQRLQG [ZBTB22] is ____.
2.41

Fill blank: measured protein stability index of the sequence FQAPCQRCGKFLQDGLPPTWRDFR [MED27] is ____.
2.28

Fill blank: measured protein stability index of the sequence PSLDSRQRLDYEREIQPTAILSLD [SPRY1] is ____.
4.53

Fill blank: measured protein stability index of the sequence DSGQYWPSVYHAMPSPCSCMSFNP [WDFY2] is ____.
2.31

----------
experiment: protein stability index of a GFP-peptide fusion (GPS, HEK-293T) (PSI 1-6); higher = more stable; conditions: treatment: MLN4924 1 uM, 8 h; c terminus: a fixed tail appended
Grouping key: protein stability index. Bins: Low (below 3), Mid (3 to below 4), High (4 or more)

Any idea which band KLFDDCTQQFKAEKLKEKLKMKER [PPP2R5C] is in?
Mid

Any idea which band LLQRRKRENMSDGDTSATESGDEV [KMT2E] is in?
High

Any idea which band TKVVYLASETFNYSAIDRVKSRGK [PI4K2A] is in?
Mid

Any idea which band LVVQIDNAKLAADDFRTKYQTEQS [KRT33B] is in?
Mid

Any idea which band AGNSSRNSSQSSSDGSCKTAGEMV [BTBD10] is in?
High

Any idea which band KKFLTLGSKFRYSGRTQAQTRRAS [EPB41L3] is in?
Mid

Any idea which band VNNDKSISVQELMGCLGVAKEDGK [SMOC2] is in?
High

Any idea which band LRVEFAAENYLSGGGPGDGGGADT [FBXO33] is in?
High

Any idea which band VRSTETVERDNMEEDNVEESEEEG [HDAC6] is in?
High

Any idea which band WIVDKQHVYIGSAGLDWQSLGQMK [PLD5] is in?
Low

Any idea which band RNEGVSSVLLGASNADQLMENIGA [KCNAB2] is in?
High

Any idea which band VLSLACAGGHLAVVELLLAHGADP [ANKRD17] is in?
Low
